B1: TPR t1 (parent)
chain: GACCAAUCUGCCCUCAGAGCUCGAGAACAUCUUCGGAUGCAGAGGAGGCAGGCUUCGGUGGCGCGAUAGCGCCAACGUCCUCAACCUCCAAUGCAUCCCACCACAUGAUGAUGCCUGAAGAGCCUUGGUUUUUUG

# Variants of: B1
# Assay name: polymerase ribozyme fitness, log enrichment relative to wild type (log ratio); higher = more active; in vitro selection for triplet polymerase activity
Property: polymerase ribozyme fitness (log ratio)
Number only, please.

A29U C56U A74U A100C | -3.55
C53A U78C C82U C102U | -0.997
A16G C73A A90C | -3.02

-- ask I have this variant here, A74G G120U G135C , and I need its recorded polymerase ribozyme fitness (log ratio).
-- reply 0.597

-- ask I have this variant here, G35C G120U , and I need its recorded polymerase ribozyme fitness (log ratio).
-- reply -3.99

-- ask I have this variant here, A50C C115U , and I need its recorded polymerase ribozyme fitness (log ratio).
-- reply -1.47

-- ask I have this variant here, A5G C12A U132A U133A , and I need its recorded polymerase ribozyme fitness (log ratio).
-- reply -1.41
